- Tested on: U-251
- Assay notes: Antiproliferative activity against human U251 cells after 5 days by CyQuantGR dye-based fluorescence assay
- Type: functional, cell-based
- Assay context: U-251, 120 h
Measured metric: IC50
Kindly report the value followed by its unit.

Lookup: Please look up its IC50: Cc1ccc(N(CCn2nnc3c(C(N)=O)ncn3c2=O)CCn2nnc3c(C(N)=O)ncn3c2=O)cc1
Found: 5.2 µM

----------
- Assay notes: Half life in […] mouse at 25 micromol/kg, ip administered as single dose by mass spectrometric analysis
- Assay type: ADME, organism-based
- Assay context: in vivo, 25 µmol/kg
Measured metric: half-life (min)
Reply numerically in min, unit not repeated.

Lookup: Please look up its half-life: Cc1ccc(N(CCn2nnc3c(C(N)=O)ncn3c2=O)CCn2nnc3c(C(N)=O)ncn3c2=O)cc1
Found: 14

----------
- Test system: U-87 MG
- Assay notes: Antiproliferative activity against human U87MG cells after 5 days by CyQuantGR dye-based fluorescence assay
- Format: functional, cell-based, U-87MG ATCC
- Assay context: 120 h
Measured metric: pIC50
In plain terms, pIC50 is the concentration in mol/L turned into minus its base-10 logarithm.

Lookup: Please look up its pIC50: Cc1ccc(N(CCn2nnc3c(C(N)=O)ncn3c2=O)CCn2nnc3c(C(N)=O)ncn3c2=O)cc1
Found: 4.85

----------
- System: U-87 MG
- Assay notes: Antiproliferative activity against human U87MG cells after 72 hrs by MTS assay
- Assay type: functional, cell-based, U-87MG ATCC
Measured metric: pIC50
In plain terms, pIC50 is the concentration in mol/L turned into minus its base-10 logarithm.

Lookup: Please look up its pIC50: Clc1ccccc1CNc1ncnc2c1cnn2CC(Cl)c1ccc(Br)cc1 (stereo unspecified)
Found: 4.83

----------
- Assay notes: Antiproliferative activity against human U3005MG cells by CellTiter-Glo assay
- Format: functional, cell-based
Measured metric: pEC50
In plain terms, pEC50 is the concentration in mol/L turned into minus its base-10 logarithm.

Lookup: Please look up its pEC50: CN1CCN(CCCN2c3ccccc3Sc3ccc(C(F)(F)F)cc32)CC1 [TRIFLUOPERAZINE]
Found: 5.73

----------
- Assay notes: Antiproliferative activity against human BT74 cells after 72 hrs by WST-1 assay
- Format: functional, cell-based
pEC50: −log10 of the molar value.
Measured metric: pEC50

Lookup: Please look up its pEC50: CCn1c(C)c(C(=O)c2ccc(C)c3ccccc23)c2ccccc21
Found: 2.07 to 2.62

----------
- Assay notes: Tmax in […] mouse at 25 micromol/kg, ip administered as single dose by mass spectrometric analysis
- Type: ADME, organism-based
- Assay context: in vivo, 25 µmol/kg
Measured metric: Tmax (min)
Reply numerically in min, unit not repeated.

Lookup: Please look up its Tmax: Cc1ccc(N(CCn2nnc3c(C(N)=O)ncn3c2=O)CCn2nnc3c(C(N)=O)ncn3c2=O)cc1
Found: 10

----------
- System: U138-MG
- Assay notes: Antiproliferative activity against human U138MG cells after 5 days by AlamarBlue assay
- Format: functional, cell-based
- Assay context: 120 h
Measured metric: IC50

Lookup: Please look up its IC50: O=C(Nc1ccc([N+](=O)[O-])cc1Cl)c1cc(Cl)ccc1O [NICLOSAMIDE]
Found: 300 to 1200 nM

----------
- System: U-251
- Assay notes: Antiproliferative activity against human U251 cells assessed as reduction in cell viability after 72 hrs in presence of irradiation by AlamarBlue assay
- Format: functional, cell-based
- Assay context: U-251, light or radiation study
Measured metric: EC50

Lookup: Please look up its EC50: COc1cc(COc2ccc(NC(=O)CCCc3ccc(-c4cccnc4F)cc3)cc2)c([N+](=O)[O-])cc1OC
Found: 1.3 µM

----------
- Tested on: PBMC
- Assay notes: Cytotoxicity against human PBMC after 72 hrs by MTT assay
- Assay type: cell-based
Measured pIC50 values are reported for all entries that follow.
In plain terms, pIC50 is the concentration in mol/L turned into minus its base-10 logarithm.

Smiles string	Tgt	Quantitative result
O=C1C=C(N[C@@H](Cc2ccccc2)C(=O)O)C(=O)c2ccccc21	PBMC	4.42

// next item, pIC50 requested
Lookup: Please look up its pIC50: O=C(O)CNC1=CC(=O)c2ccccc2C1=O
Found: 4.62

----------
- Assay notes: Cmax in […] mouse at 25 micromol/kg, ip administered as single dose by mass spectrometric analysis
- Format: ADME, organism-based
- Set-up: route intraperitoneal
- Assay context: in vivo, 25 µmol/kg
Measured metric: Cmax (nM)
Reply numerically in nM, unit not repeated.

Lookup: Please look up its Cmax: Cc1ccc(N(CCn2nnc3c(C(N)=O)ncn3c2=O)CCn2nnc3c(C(N)=O)ncn3c2=O)cc1
Found: 260

----------
- Test system: U-251
- Assay notes: Antiproliferative activity against human U251 cells assessed as reduction in cell viability after 72 hrs by AlamarBlue assay
- Format: functional, cell-based
- Assay context: U-251, 72 h
Measured metric: pEC50
In plain terms, pEC50 is the concentration in mol/L turned into minus its base-10 logarithm.

Lookup: Please look up its pEC50: O=C(CCCc1ccc(-c2cccnc2F)cc1)Nc1ccc(O)cc1
Found: 5.80

----------
- Test system: U-87 MG
- Assay notes: Antiproliferative activity against human U87 cells over-expressing EGFRvIII assessed as reduction in cell viability after 72 hrs by AlamarBlue assay
- Type: functional, cell-based, U-87MG ATCC
Measured metric: pEC50
In plain terms, pEC50 is the concentration in mol/L turned into minus its base-10 logarithm.

Lookup: Please look up its pEC50: O=C(CCCc1ccc(-c2cccnc2F)cc1)Nc1ccc(O)cc1
Found: 5.77

----------
- System: U-251
- Assay notes: Cytotoxicity against human U251 cells after 72 hrs by AlamarBlue assay
- Assay type: functional, cell-based
- Assay context: U-251, 72 h
pEC50: −log10 of the molar value.
Measured metric: pEC50

Lookup: Please look up its pEC50: O=C(CCCc1ccc(-c2cc3ccccc3cn2)cc1)Nc1ccc(O)cc1
Found: 5.89 to 6.22

----------
- Tested on: T98G
- Assay notes: Antiproliferative activity against human T98G cells after 72 hrs by MTS assay
- Type: functional, cell-based
Measured metric: IC50 (µM)
Reply numerically in µM, unit not repeated.

Lookup: Please look up its IC50: Clc1ccccc1CNc1ncnc2c1cnn2CC(Cl)c1ccc(Br)cc1 (stereo unspecified)
Found: 12.5
